The following compounds are listed with their measured solubility kinetic at 10 s values.
experiment: Kinetic aqueous solubility by nephelometry
Type: physicochemical
condition-description: phosphate-buffered saline, aqueous buffer, kinetic from dmso stock, PBS pH 7.4, 1% DMSO, 25°C, logS = decadic logarithm of molar solubility [M]
assay-metric: solubility kinetic at 10 s

>  <compound>
CNCCNC(=O)CN1C(=O)Cc2c([nH]c3ccc(I)cc23)-c2ccc(Cl)cc21 [1f]

>  <obs-value>
2.95e-05 M

$$$$
>  <compound>
CNCCNC(=O)CN1C(=O)Cc2c([nH]c3ccc(Cl)cc23)-c2ccc(Cl)cc21 [1g]

>  <obs-value>
4.79e-05 M

$$$$
>  <compound>
CNCCNC(=O)CN1C(=O)Cc2c([nH]c3ccc(C(F)(F)F)cc23)-c2ccc(Cl)cc21 [1h]

>  <obs-value>
4.27e-05 M

$$$$
>  <compound>
CON=C1CCC(=O)N(CC(=O)NCCN2CCNCC2)c2ccccc21 (mixture of isomers) [5d]

>  <obs-value>
> 0.001 M

$$$$
>  <compound>
O=C(CN1C(=O)CCCc2ccccc21)N1CCCC1 [2j]

>  <obs-value>
> 0.00398 M

$$$$
>  <compound>
CON=C1CCC(=O)N(CC(=O)N2CCCC2)c2ccccc21 (mixture of isomers) [5c]

>  <obs-value>
> 0.00398 M

$$$$
>  <compound>
Cl.O=C(CN1C(=O)CCCc2ccccc21)N1CCNCC1 [2q]

>  <obs-value>
> 0.00398 M

$$$$
>  <compound>
CC1(C)CCc2ccccc2N(CC(=O)NCCN2CCNCC2)C1=O.Cl.Cl [3d]

>  <obs-value>
> 0.002 M

$$$$
>  <compound>
Cl.Cl.O=C(CN1C(=O)CCCc2ccccc21)NCCN1CCNCC1 [2o]

>  <obs-value>
> 0.001 M

$$$$
>  <compound>
Cl.Cl.O=C(CN1C(=O)Cc2ccccc2-c2ccccc21)NCCN1CCNCC1 [4d]

>  <obs-value>
> 0.0002 M

$$$$

Cited source for all entries: paper PMC10688702
